# key: entry, value: IC50
Test system: L1210
procedureText: Antiproliferative activity against mouse L1210 cells assessed as reduction in cell viability incubated for 48 hrs by MTT assay
Type: functional, cell-based
reportedConditions: L1210, 48 h
Report the value in nM with no unit label.

C[C@H]1COc2c(N3CCN(C)CC3)c(F)cc3c(=O)c(-c4nn5c(-c6cn(C7CC7)c7cc(N8CCNCC8)c(F)cc7c6=O)nnc5s4)cn1c23 1500

Ask | Find the measured IC50 of O=c1c(-c2nn3c(-c4cn(C5CC5)c5cc(N6CCNCC6)c(F)cc5c4=O)nnc3s2)cn(C2CC2)c2cc(N3CCNCC3)c(F)cc12 and report it.
Reply | 3600
